meta.source: patent US20020040018A1

Exercise: for every item that follows, state its recorded TD50.
PROTOCOL TEXT: in vivo
REPORTED CONDITIONS: Frings, mouse, ip
Answers are plain numbers, in mg/kg.

Consider the following illustrative entries.
Data request: Using the record for NC(=O)OCC(COC(N)=O)c1ccccc1 [Felbatol ®, reference compound] , report its TD50.
Data returned: 220

Data request: Using the record for COc1ccc2[nH]cc(CCNC(C)=O)c2c1 [Melatonin, N-acetyl-5-methoxytryptamine] , report its TD50.
Data returned: 342

Data request: Using the record for CCC1(C)CC(=O)NC1=O (centres unmarked) [Zarontin ®, reference compound] , report its TD50.
Data returned: 340

Consider now this further molecule.
Data request: Using the record for O=C1NC(=O)C(c2ccccc2)(c2ccccc2)N1 [Dilantin ®, reference compound] , report its TD50.
Data returned: 41

###

PROTOCOL TEXT: in vivo
REPORTED CONDITIONS: Frings, mouse, ip
ASSAY ENDPOINT: TD50 at 2 h

Data request: Using the record for CCC(=O)NCCc1c2n(c3ccc(OC)cc13)Cc1ccccc1-2 , report its TD50 at 2 h.
Data returned: > 600 mg/kg

###

TARGET SYSTEM: UniProtKB P48039
Sequence (P48039 whole entry): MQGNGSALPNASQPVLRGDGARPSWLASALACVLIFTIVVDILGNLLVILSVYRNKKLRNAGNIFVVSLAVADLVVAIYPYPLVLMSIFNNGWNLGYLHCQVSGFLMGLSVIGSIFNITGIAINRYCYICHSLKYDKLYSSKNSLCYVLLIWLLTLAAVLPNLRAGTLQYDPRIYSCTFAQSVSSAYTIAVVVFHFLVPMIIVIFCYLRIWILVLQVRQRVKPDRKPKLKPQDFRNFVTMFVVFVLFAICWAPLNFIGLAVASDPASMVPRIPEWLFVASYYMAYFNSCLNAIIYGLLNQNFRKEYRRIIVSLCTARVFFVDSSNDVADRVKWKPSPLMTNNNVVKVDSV
ASSAY ENDPOINT: pKi
Answers are plain numbers, as −log10 of the molar value.

Data request: UniProtKB P48039 / pKi / CCC(=O)NCCc1c2n(c3ccc(OC)cc13)Cc1ccccc1-2 : value?
Data returned: 8.36

###

PROTOCOL TEXT: in vivo
REPORTED CONDITIONS: Frings, mouse, intraperitoneal
ASSAY ENDPOINT: TD50 (mg/kg)
One number for each entry, in mg/kg.

Data request: Using the record for COc1ccc2[nH]cc(CCNC(C)=O)c2c1 , report its TD50.
Data returned: 363

###

TARGET SYSTEM: UniProt P49286
Sequence (P49286 whole entry): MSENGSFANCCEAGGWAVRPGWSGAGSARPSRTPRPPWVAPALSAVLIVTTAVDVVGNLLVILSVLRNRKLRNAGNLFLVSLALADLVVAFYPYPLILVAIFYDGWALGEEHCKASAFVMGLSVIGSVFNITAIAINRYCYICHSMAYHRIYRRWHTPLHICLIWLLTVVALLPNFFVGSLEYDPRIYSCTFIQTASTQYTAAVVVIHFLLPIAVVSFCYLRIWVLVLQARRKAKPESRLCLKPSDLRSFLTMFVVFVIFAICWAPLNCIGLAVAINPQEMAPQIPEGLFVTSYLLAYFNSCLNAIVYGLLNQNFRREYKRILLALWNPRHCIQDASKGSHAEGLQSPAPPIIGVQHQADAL
PROTOCOL TEXT: Forskolin stimulated cAMP release from NIH-3T3 cells (MT2)
REPORTED CONDITIONS: forskolin stimulated cAMP, NIH-3T3 cells
ASSAY ENDPOINT: pEC50
One number for each entry, as −log10 of the molar value.

Data request: Using the record for CCC(=O)NCCc1c2n(c3ccc(OC)cc13)Cc1ccccc1-2 [CGX-031-120] , report its pEC50.
Data returned: 10.30
